Every entry's value here was drawn from ChEMBL document CHEMBL3272173.

system: Rattus norvegicus; assay: Antiovulatory activity in CD rat assessed as blockade of ovulation at 1 mg, sc administered as six doses at 1200, 1230, 1300, 1350, 1400 and 1450 hrs during proestrus stage measured during estrus stage by dissecting microscopic analysis; assay type: functional
Peptide text beside a SMILES is read from it. * marks the point of attachment. Cbz = O=C(OCc1ccccc1)*; Bn = c1ccc(C*)cc1
Answer each item with its documented inhibition (INH).

| compound | inhibition (INH) |
| --- | --- |
| CC(C)C[C@H](NC(=O)[C@@H](CC(C)C)NC(=O)[C@H](Cc1ccc(O)cc1)NC(=O)[C@H](CO)NC(=O)[C@H](Cc1c[nH]c2ccccc12)NC(=O)[C@H](Cc1ccc(OCc2ccccc2)cc1)NC(=O)OCc1ccccc1)C(=O)N[C@@H](CCCNC(=N)N)C(=O)N1CCC[C@H]1C(=O)NCC(N)=O.Cl | 0% |
| CC(C)C[C@H](NC(=O)[C@@H](Cc1c[nH]c2ccccc12)NC(=O)[C@H](Cc1ccc(O)cc1)NC(=O)[C@H](CO)NC(=O)[C@H](Cc1c[nH]c2ccccc12)NC(=O)[C@H](CCC(N)=O)NC(=O)OCc1ccccc1)C(=O)N[C@@H](CCCNC(=N)N)C(=O)N1CCC[C@H]1C(=O)NCC(N)=O.Cl | 0% |
| CC(C)C[C@H](NC(=O)CNC(=O)[C@H](Cc1ccc(O)cc1)NC(=O)[C@H](CO)NC(=O)[C@H](Cc1c[nH]c2ccccc12)NC(=O)[C@H](Cc1ccc(OCc2ccccc2)cc1)NC(=O)OCc1ccccc1)C(=O)N[C@@H](CCCNC(=N)N)C(=O)N1CCC[C@H]1C(=O)NCC(N)=O.Cl (Cbz-Y(Bn)WSYGLRPG-NH2) | 20% |

State recorded inhibition (INH) for all listed compounds.
1. CC(C)C[C@H](NC(=O)[C@@H](CO)NC(=O)[C@H](Cc1ccc(O)cc1)NC(=O)[C@H](CO)NC(=O)[C@H](Cc1c[nH]c2ccccc12)NC(=O)[C@H](COCc1ccccc1)NC(=O)OC(C)(C)C)C(=O)N[C@@H](CCCNC(=N)N)C(=O)N1CCC[C@H]1C(=O)NCC(N)=O.Cl
2. CCNC(=O)[C@@H]1CCCN1C(=O)[C@H](CCCNC(=N)N)NC(=O)[C@H](CC(C)C)NC(=O)[C@@H](CC(C)C)NC(=O)[C@H](Cc1ccc(O)cc1)NC(=O)[C@H](CO)NC(=O)[C@H](Cc1c[nH]c2ccccc12)NC(=O)[C@H](CCC(N)=O)NC(=O)OCc1ccccc1.Cl

Marked response:
1. 0%
2. 20%
